Molecular target: Fn14-TWEAK binding (Homo sapiens, UniProt Q9NP84)
Construct: the human Fc fragment-tagged Fn14 extracellular domain (R&D Systems) was captured; purchased R&D Systems (Fn14-Fc); Peprotech (recombinant TWEAK)
Sequence (Q9NP84 28-80 limits assumed): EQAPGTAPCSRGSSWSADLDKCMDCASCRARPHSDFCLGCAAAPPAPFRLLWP
Test: Double sandwich ELISA small molecule screening of TWEAK binding to captured Fn14-Fc
Details: Table 4, second screening iteration, 25 μM, replicate 1; read-out: % Reduction in TWEAK Binding, Data 1
quantity kind: inhibition at 25 µM (%)

# compound, inhibition at 25 µM, %
rows = [
    ("Nc1ccccc1SCC(=O)Nc1cccc2nsnc12 [Compound 8415-09495]", 17.8),
]

I. O=C(NC1CC1)c1cn(-c2cccc(Cl)c2)nn1 [Compound L524-0361]
II. O=C(CSc1nnc(-c2ccccc2)c(-c2ccccc2)n1)Nc1cccc(Cl)c1 [Compound K784-2268]
Please indicate which item has the smaller measured inhibition at 25 µM: I versus II Answer by quoting the chosen item's label.
I
(I: 14.7%, II: 24%)

* * *

target: Fn14-TWEAK binding (Homo sapiens, UniProt Q9NP84); construct: the human Fc fragment-tagged Fn14 extracellular domain (R&D Systems) was captured; purchased R&D Systems (Fn14-Fc); Peprotech (recombinant TWEAK); experiment: Double sandwich ELISA small molecule screening of TWEAK binding to captured Fn14-Fc; details: Table 5, 25 μM, average of duplicate; read-out: % Reduction in TWEAK Binding, Average
quantity kind: inhibition at 25 µM (%)

# molecule, target of assay, display unit, inhibition at 25 µM
measured = [
    ("CCOCCCNC(=O)C(=O)NCc1n[nH]c(=O)c2ccccc12", "Fn14-TWEAK binding (Homo sapiens, UniProt Q9NP84)", "%", 12),
    ("CCC(=O)Nc1ccccc1-c1nnc(SC(CC)C(=O)Nc2cccc(OC)c2)[nH]c1=O (centres unmarked)", "Fn14-TWEAK binding (Homo sapiens, UniProt Q9NP84)", "%", 11.6),
    ("O=C(CSc1ccccc1)Nc1cccc2nsnc12", "Fn14-TWEAK binding (Homo sapiens, UniProt Q9NP84)", "%", 14.6),
]

I. O=C1CN(C(=O)CSc2ccccc2)c2ccccc2N1
II. CCCSc1nnc(-c2ccccc2NC(=O)CC)c(O)n1
III. COc1ccc(-c2nnc(SCC(=O)Nc3ccccc3OC)nc2-c2ccc(OC)cc2)cc1
Sort entries by inhibition at 25 µM from minimum to maximum value. The reply should contain the labels ordered as requested.
II, I, III

* * *

biological target: Fn14-TWEAK binding (Homo sapiens); construct: the human Fc fragment-tagged Fn14 extracellular domain (R&D Systems) was captured; purchased R&D Systems (Fn14-Fc); Peprotech (recombinant TWEAK); experiment: Double sandwich ELISA small molecule screening of TWEAK binding to captured Fn14-Fc; details: Table 5, 25 μM, average of duplicate; read-out: % Reduction in TWEAK Binding, Average
quantity kind: inhibition at 25 µM (%)

Please review the following examples before continuing.
# compound, quantity kind, display unit, experimental result
data = [
    ("CCn1c(=O)c(S(=O)(=O)c2ccccc2)c(O)c2ccccc21 [Compound C200-7197]", "inhibition at 25 µM", "%", 26.3),
    ("O=C(NCc1cccnc1)C(=O)NCc1n[nH]c(=O)c2ccccc12 [Compound F044-0083]", "inhibition at 25 µM", "%", 11),
    ("O=C(NCc1ccc(F)cc1)C(=O)NCc1n[nH]c(=O)c2ccccc12 [Compound F044-0077]", "inhibition at 25 µM", "%", 11.5),
    ("O=C(Cc1c[nH]c2ccccc12)Nc1ccc2oc(=O)ccc2c1 [Compound D715-0817]", "inhibition at 25 µM", "%", 10.3),
    ("O=C(CSc1nnc(-c2ccccc2)c(-c2ccccc2)n1)Nc1ccc(S(=O)(=O)Nc2nccs2)cc1 [Compound 4981-0539]", "inhibition at 25 µM", "%", 11.7),
]

a. CCC(=O)Nc1ccccc1-c1nnc(SC(C)C(=O)Nc2cccc(Cl)c2C)[nH]c1=O (stereo not shown) [Compound F151-0419]
b. Cc1cccc(-n2c(=O)c3[nH]c4ccccc4sc=3c2=O)c1 [Compound 8211-0292]
Choose between a and b : whose measured inhibition at 25 µM value is numerically larger? Bench note: the answer is the label of the chosen record.
b

* * *

Biological target: Fn14-TWEAK binding (Homo sapiens, UniProt Q9NP84)
Construct: the human Fc fragment-tagged Fn14 extracellular domain (R&D Systems) was captured; purchased R&D Systems (Fn14-Fc); Peprotech (recombinant TWEAK)
Sequence (Q9NP84 28-80 limits assumed): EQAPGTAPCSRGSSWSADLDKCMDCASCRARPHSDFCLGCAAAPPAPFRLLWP
Experiment: Double sandwich ELISA small molecule screening of TWEAK binding to captured Fn14-Fc
Conditions: Table 5, 25 μM, average of duplicate; read-out: % Reduction in TWEAK Binding, Average
quantity kind: inhibition at 25 µM (%)

# molecule, inhibition at 25 µM [%]
rows = [
    ("O=C(NCc1ccccc1Cl)C(=O)NCc1n[nH]c(=O)c2ccccc12 [Compound F044-0076]", 10.9),
    ("CC(C)NC(=O)C(=O)NCc1n[nH]c(=O)c2ccccc12 [Compound F044-0043]", 13.7),
    ("O=C(CSc1nc2c(cnn2-c2ccccc2)c(=O)[nH]1)NCc1ccc(F)cc1 [Compound G873-0031]", 14.2),
    ("C=CCSc1nnc(-c2ccccc2NC(=O)CC)c(O)n1 [Compound 6969-1085]", 16.8),
    ("CCC(=O)Nc1ccccc1-c1nnc(SCC(=O)Nc2cc(C)ccc2C)[nH]c1=O [Compound F151-0458]", 11.1),
    ("Cc1cc(C2CCCN2C(=O)c2cc(-c3ccc4c(c3)OCO4)on2)on1 (stereo not drawn) [Compound J004-1091]", 15),
    ("O=C(NCc1ccccc1)C(=O)NCc1n[nH]c(=O)c2ccccc12 [Compound F044-0075]", 13),
    ("O=C(c1cn(-c2cccc(Cl)c2)nn1)N1CCSCC1 [Compound L524-0366]", 16.9),
    ("COc1ccc(C2N[C@H](C(=O)O)Cc3c2[nH]c2ccccc32)cc1O (stereo partly drawn) [Compound D715-0114]", 10.3),
    ("CCCC(=O)Nc1ccccc1-c1nnc(SC)nc1O [Compound 7033-0155]", 20.2),
    ("O=C(CSc1nnc(-c2ccccc2)c(-c2ccccc2)n1)Nc1cccc(Cl)c1 [Compound K784-2268]", 17),
    ("Cc1ccc(-c2csc3c(=O)[nH]c(N4CCCC(C(N)=O)C4)nc23)cc1 (stereo not drawn) [Compound Z250-1348]", 13.3),
    ("COC(=O)[C@H]1Cc2c([nH]c3ccccc23)CN1 [Compound D715-0140]", 11.7),
    ("O=C(CSc1nc2c(cnn2-c2ccccc2)c(=O)[nH]1)NCc1ccc2c(c1)OCO2 [Compound G873-0032]", 20.4),
    ("CCC(=O)Nc1ccccc1-c1ccccc1NC(=O)CC [Compound 4478-7056]", 16.5),
    ("O=C(c1csc(S(=O)(=O)NCc2ccccn2)c1)N1CCCCCC1", 12),
    ("O=C(CSc1nnc(-c2ccccc2)c(-c2ccccc2)n1)Nc1ccccc1 [Compound G003-0114]", 13),
    ("O=C(NCc1ccncc1)C1CCCN(c2nc3c(-c4ccccc4)csc3c(=O)[nH]2)C1 (stereo not drawn)", 14.3),
]

* * *

Biological target: Fn14-TWEAK binding (Homo sapiens, UniProt Q9NP84)
Construct: the human Fc fragment-tagged Fn14 extracellular domain (R&D Systems) was captured; purchased R&D Systems (Fn14-Fc); Peprotech (recombinant TWEAK)
Sequence (Q9NP84 28-80 limits assumed): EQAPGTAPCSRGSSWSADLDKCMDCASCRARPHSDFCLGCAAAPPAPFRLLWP
Test: Double sandwich ELISA small molecule screening of TWEAK binding to captured Fn14-Fc
Conditions: Table 5, 25 μM, replicate 1; read-out: % Reduction in TWEAK Binding, Data 1
quantity kind: inhibition at 25 µM (%)

Before answering, review these 6 worked examples.
# smiles structure, inhibition at 25 µM [%]
records = [
    ("O=C(NCc1ccc(F)cc1)C(=O)NCc1n[nH]c(=O)c2ccccc12", 12.6),
    ("CCCC(=O)Nc1ccccc1-c1nnc(SC)nc1O", 19.5),
    ("Cc1cc(C)n(CC(=O)NCCc2c[nH]c3ccccc23)n1", 17.1),
    ("COc1cccc(NC(=O)CSc2nnc(-c3ccc(F)cc3)c(-c3ccc(F)cc3)n2)c1", 17.2),
    ("CCC(=O)Nc1ccccc1-c1ccccc1NC(=O)CC", 15),
    ("O=C(CSc1nnc(-c2ccccc2)c(-c2ccccc2)n1)Nc1cccc(Cl)c1", 24),
]

I. O=C(CSc1nc2c(cnn2-c2ccccc2)c(=O)[nH]1)NCc1ccc(F)cc1
II. CCOCCCNC(=O)C(=O)NCc1n[nH]c(=O)c2ccccc12
Looking only at measured inhibition at 25 µM, which entry is lower, I or II ? Mark your answer with the label of the selected entry.
II
